# System: HCT-116 colon
# test-description: NCI tumour cell line growth inhibition, 48 h
Where a SMILES comes first, the peptide text is derived from it. The star is where a group is joined. Ethyl(2-NMe3+) = C[N+](C)(C)CC*; Boc = CC(C)(C)OC(=O)*
Entries and their measured TGI follow.
readout-kind: TGI

* N#Cc1ccc(C(=O)/C=C/c2ccc(O)c(O)c2)cc1 | 22.8 µM
* CNCCNc1c2c(c(NCCNC)c3[nH]ccc13)C(=O)c1ccccc1C2=O | 0.498 µM
* CC1(C)C/C(=N/O)c2c(nc3ccc4ccccc4c3c2-c2ccc(Cl)cc2)C1 | 24.1 µM
* NC1CC(Cl)c2c(Cl)sc(Cl)c21 (stereo not drawn) | > 100 µM
* O=S(=O)(c1cccc2c(Cl)cccc12)N1CCCNCC1 | 21.9 µM
* Cc1ccc(C2SC(N)=Nc3c2c(C)nn3C(=O)c2ccccc2O)cc1 (stereo not drawn) | > 10 µM
* CC1=C(C)C1[N+](=O)[O-] | > 100 µM
* O=c1n(-c2ccccc2)c(=O)n2n1C1Cc3ccccc3C12 (stereo not drawn) | > 100 µM
* Cc1ccc(N2CCC3(CC2)OCCO3)cc1 | > 100 µM
* O=C(Nc1ccc2[nH]c(=S)sc2c1)Nc1ccccc1F | > 100 µM
* NC(CCC(=O)NC(CSC(=O)N(O)c1ccccc1)C(=O)NCC(=O)O)C(=O)O (stereo not drawn) | > 1000 µM
* Clc1ccc2nnnn2n1 | 4.46 µM
* N#CC1=C(N)Oc2c(sc3c(Br)cccc23)C1c1ccc(Br)cc1 (stereo not drawn) | 1.84 µM
* CNC(=O)CC1NC(=O)c2csc(n2)-c2ccc(-c3nc(C4=NC(C(=O)N5CCCC5C(N)=O)CO4)cs3)nc2-c2csc(n2)-c2csc(n2)C(C(C)C)NC(=O)CNC(=O)c2csc(n2)C(C(C)C)NC(=O)c2nc1sc2C (stereo not drawn) | > 25 µM
* CCC[CH2][Sn]([CH2]CCC)([CH2]CCC)[O]C(=O)c1ccc(Cl)cc1Cl | 0.262 µM
* Cc1ccc(N(C(=O)Nc2ccc(F)c(Cl)c2)C2=NCC(C)S2)cc1 (stereo not drawn) | > 100 µM
* C/C(=N\NC(=O)c1ccncc1)c1ccccc1F | > 10 µM
* CC(NC(=O)C(Cc1ccc(OCC[N+](C)(C)C)cc1)NC(=O)OC(C)(C)C)C(=O)NC(Cc1ccccc1)C(=O)NCC(N)=O (stereo not drawn) (Boc-Y(Ethyl(2-NMe3+))AFG-NH2; configuration not given here) | > 100 µM

* * *

# TGI values compiled below
# Test system: MCF7 breast
# test-description: NCI tumour cell line growth inhibition, 48 h
readout-kind: TGI

• S=C1CSc2c(ccc3ccccc23)N1 = > 100 µM
• c1ccc2c(c1)cc1c3[nH]c4ccccc4c3ccn21 = > 10 µM
• CNCCNc1c2c(c(NCCNC)c3[nH]ccc13)C(=O)c1ccccc1C2=O = 1.19 µM
• CC1OC(OC2C(OC(=O)[C@@H]3CC(C)(C)C[C@@H]4C5=CC[C@@H]6[C@@]7(C)C[C@H](O)[C@H](OC8OC(CO)C(O)C(O)C8O)[C@@](C)(CO)C7[C@H](O)C[C@@]6(C)[C@]5(C)C[C@@H](O)[C@H]43)OCC(O)C2O)C(O)C(O)C1O (stereo partly drawn) = > 15 µM
• C/C=C(\C)C(=O)OC1C(C)=C2C(C1OC(=O)CCCC)C(C)(OC(C)=O)CC(OC(=O)CCCC)C1(O)C2OC(=O)C1(C)O (stereo not drawn) = > 100 µM
• COC(=O)C1CCCN1C(=O)[C@@H]1CCCN1C(=O)[C@H](Cc1c[nH]c2ccccc12)NC(=S)Nc1cc(C(F)(F)F)cc(C(F)(F)F)c1 (stereo partly drawn) = 6 µM
• Nc1ccc(CCSSCCc2ccc(N)cc2)cc1 = > 100 µM
• COCn1cnc2c(=O)n(-c3ccc(OC)cc3)c(=S)n(-c3ccc(OC)cc3)c21 = > 100 µM
